Kindly state folding stability dG for each of the entries shown.
B1: 2K2A (parent)
chain: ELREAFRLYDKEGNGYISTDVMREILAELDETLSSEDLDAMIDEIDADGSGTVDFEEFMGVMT

Variants of: B1
ASSAY REMARKS: folding stability dG (cDNA display proteolysis); higher = more stable
CONDITION DESCRIPTION: PBS, room temperature
I only need the number, in kcal/mol, no unit after it.

// folding stability dG value for "E56W" : 1.99

Looking up "D30M" , I found its folding stability dG recorded as 1.95

Lab book: folding stability dG of "M62F" noted as 2.04
